Test system: BT-549 breast
protocol_summary: NCI tumour cell line growth inhibition, 48 h
Reported GI50 values are given for each entry in this list.

Here's what some known entries look like.
input_smiles | quantity_measured | assay_value
O=C(c1ccco1)c1nc2cc(C(F)(F)F)ccc2nc1C(F)(F)F | GI50 | > 100 µM
Cc1cccc(-c2[nH]ncc2-c2ccc3ncccc3n2)n1 | GI50 | > 25 µM
Cn1cc(C2=C(c3ccccc3[N+](=O)[O-])C(=O)NC2=O)c2ccccc21 | GI50 | 5.26 µM

*Q* Given the compound CCOC(=O)c1ccc(Nc2sc(C(=O)c3ccc(Br)cc3)c(N)c2C#N)cc1 , write its reported GI50.
*A* > 100 µM

*Q* Find the measured GI50 of CSC1=Nc2c(c(C)c(-c3ccccc3)n2CCCN2CCCCC2)C2=NC(=O)C[C@H](C)N12 and report it.
*A* 2.83 µM

---

Test system: SN12C renal
protocol_summary: NCI tumour cell line growth inhibition, 48 h
# maps each entry to its TGI

Example results:
molecule | experimental_system | TGI
Cc1cc(O)c2c(c1O)C(=O)c1cccc(O)c1C2=O | SN12C renal | > 100 µM
O=c1[nH]nc(Cc2ccc(Cl)cc2)n1/N=C/c1ccco1 | SN12C renal | > 100 µM
COc1ccc2c(c1)[n+]([O-])c(-c1ccc([N+](=O)[O-])cc1)c(N)[n+]2[O-] | SN12C renal | > 100 µM
c1cnn(C23C4C5C6C4C2C6C53)c1 (stereo unspecified) | SN12C renal | > 100 µM
Cc1c(O)c2ccccc2oc1=O | SN12C renal | > 100 µM
COc1ccc2c(c1O)-c1cc(O)cc3c1[C@@H](C2)N(C)CC3 | SN12C renal | 183 µM
c1ccc2c(CN3CCN(Cc4c[nH]c5ccccc45)CC3)c[nH]c2c1 | SN12C renal | 41.9 µM
O=c1cc(-c2ccccc2)oc2ccc(OC/C(=N/O)c3ccccc3)cc12 | SN12C renal | 33.9 µM

*Q* Answer with reported TGI of COc1ccc(-c2csc(=Nc3ccccc3)n2CCCN(C)C)cc1
*A* > 100 µM

*Q* Annotate the molecule COc1ccc(C(CCC(C)=O)C(=O)O)cc1OC (stereo unspecified) with its measured TGI.
*A* > 100 µM

---

Parameter: GI50. Scope: all listed entries.
Test system: UACC-62 melanoma
protocol_summary: NCI tumour cell line growth inhibition, 48 h

Observe how each entry below is paired with its result.
molecule | GI50
CC[C@@H]1[C@@H](C)O[C@@](O)([C@@H](C)[C@H](O)[C@H](C)[C@H]2OC(=O)/C=C/C=C/[C@H](C)[C@@H]([C@@H](C)[C@@H](O)[C@H](C)[C@@]3(O)C[C@@H](O[C@H]4C[C@@H](O)[C@H](O)C(C)O4)[C@H](CC)[C@@H](C)O3)OC(=O)/C=C/C=C/[C@@H]2C)C[C@H]1O[C@@H]1C[C@@H](O)[C@H](O)C(C)O1 (some centres not stated) | 60.4 nM
COC(=O)[C@@H](C)C[C@H](Cc1cn(C)c2ccccc12)NC(=O)c1csc([C@@H](C[C@H](C(C)C)N(C)C(=O)[C@@H](NC(=O)[C@H]2CCCCN2C)C(C)C)OC(C)=O)n1 | 7.45 nM
O=C(/C=C/c1ccco1)c1cc(F)c(Cl)cc1Cl | 16500 nM

*Q* Give the reported GI50 for this molecule. NS(=O)(=O)OCC1OC(n2cnc3cncnc32)C(O)C1O (configuration not stated)
*A* 37.1 nM

*Q* Name the recorded GI50 of the molecule listed here: O=S(=O)([O-])c1ccc(N=Cc2ccccc2[O-])cc1.O=S(=O)([O-])c1ccc(N=Cc2ccccc2[O-])cc1.[O]=[U+2]=[O]
*A* > 100000 nM

*Q* Please give measured GI50 of the following entry: CCOC(=O)c1ccc(Nc2sc(C(=O)c3ccc(Br)cc3)c(N)c2C#N)cc1
*A* 483 nM

*Q* Entry Cn1cc(C2=C(c3ccccc3[N+](=O)[O-])C(=O)NC2=O)c2ccccc21 needs its GI50 filled in; supply it.
*A* 3680 nM

*Q* For c1ccc([CH2][Sn]([CH2]c2ccccc2)([O]c2cccc3cccnc23)[O]c2cccc3cccnc23)cc1 , write its GI50.
*A* 178 nM

---

Test system: NCI-H460 lung
protocol_summary: NCI tumour cell line growth inhibition, 48 h
Consider the following molecules and their measured TGI readings.

molecule | TGI
CCOC(=O)C1=C(C)N=c2s/c(=C\c3ccccc3O)c(=O)n2C1c1ccc(OC)c2ccccc12 (stereo not given) | 39.5 µM
C=CC(=O)NCCSCCCOC1(C(=O)O)CC(O)C(NC(C)=O)C(C(O)C(O)CO)O1 (stereo not given) | > 100 µM
C#CCNC(=O)N(CC#C)N=O | > 100 µM
COc1ccc(OC)c(CSc2ccc(OC)c(OC)c2)c1 | > 100 µM
CCCCc1ccc(Nc2nc(Cl)c3ncn(COCCOC(C)=O)c3n2)cc1 | 32.9 µM
CN(C)CCNc1nc2ccccc2c2c1CCCC2 | 31 µM

*Q* Let me know recorded TGI for CC(C)(C)N1CCC1CN (stereo not given) , thanks.
*A* > 100 µM

*Q* For the molecule COc1cc(=O)c2c(O)c3c(O)oc(C)cc3c(OC)c2c1 , give its reported TGI.
*A* > 100 µM

*Q* Provide measured TGI value, entry: C=C(C)[C@@H]1CC[C@]2(COCCC#N)CC[C@]3(C)[C@H](CC[C@@H]4[C@@](C)(CCCNCCC#N)[C@H](C(=C)C)CC[C@]43C)[C@@H]12
*A* > 50 µM

*Q* Dear colleague, please send me the reported TGI for COc1ccc(/C=N/NC(=O)c2sc(=S)n(-c3ccccc3)c2N)cc1 when you can.
*A* > 100 µM

---

Test system: UACC-257 melanoma
protocol_summary: NCI tumour cell line growth inhibition, 48 h; in the data active = GI50 below about 0.43 µM; inactive = the rest
API: response.call in label 1 for active, label 0 for inactive

compound | experimental_system | label_class
NCCCNc1nc2ccccc2c2c(=O)c3cc(F)cc(F)c3sc12 | UACC-257 melanoma | label 0
COc1ccc(N=Cc2c(O)ccc3c2oc2cc(Cl)c(O)c(Cl)c23)cc1 | UACC-257 melanoma | label 0
CSC1=Nc2c(c(C)c(-c3ccccc3)n2CCCN2CCCCC2)C2=NC(=O)C[C@H](C)N12 | UACC-257 melanoma | label 0
O=S(=O)([O-])c1ccc(N=Cc2ccccc2[O-])cc1.O=S(=O)([O-])c1ccc(N=Cc2ccccc2[O-])cc1.[O]=[U+2]=[O] | UACC-257 melanoma | label 0
O=C(COc1ccc(/C=C2\COc3ccccc3C2=O)cc1)Nc1nccs1 | UACC-257 melanoma | label 0
C[C@]12CC[C@@H]3c4cc(OC(F)F)c(O)cc4CC[C@H]3[C@@H]1CC[C@@H]2OS(N)(=O)=O | UACC-257 melanoma | label 0
Cn1cc(C2=C(c3ccccc3[N+](=O)[O-])C(=O)NC2=O)c2ccccc21 | UACC-257 melanoma | label 0
C=CCC(N[C@@H](CO)c1ccccc1)c1cn(Cc2ccccc2Cl)c(=O)n(Cc2ccccc2Cl)c1=O (stereo not given in full) | UACC-257 melanoma | label 0

*Q* Lab log entry: CN(C)c1ccc(/C=C/c2ccnc3c(O)cccc23)cc1 — outcome as called in the assay?
*A* label 1

*Q* Please indicate how the test categorized C=C(C)[C@@H]1CC[C@]2(COCCC#N)CC[C@]3(C)[C@H](CC[C@@H]4[C@@](C)(CCCNCCC#N)[C@H](C(=C)C)CC[C@]43C)[C@@H]12 .
*A* label 0

*Q* Test call for this compound, please: CCCCCCCC/C=C/CCCCCCCC1=NC(C)(C)CN1CC(C)O (stereo not given)
*A* label 0

*Q* Per the assay record, what outcome was assigned to O=C1CC[C@H](N2C(=O)c3cccc4c(Cc5ccc(CN6CCOCC6)cc5)ccc2c34)C(=O)N1 ?
*A* label 0

*Q* What did the test return for COc1cc2nccc(Oc3ccc(NC(=O)NC4CC4)c(Cl)c3)c2cc1C(N)=O ?
*A* label 0

*Q* Answer briefly: the call reported for Cc1cc(Cl)cc2c(N=Nc3ccc(S(N)(=O)=O)cc3)c(O)[nH]c12 in this assay.
*A* label 0

*Q* Please state the recorded outcome for this compound: CCOC(=O)[C@@H](C)C[C@H](Cc1ccccc1)NC(=O)c1nc([C@@H](C[C@H](C(C)C)N(C)C(=O)[C@@H](NC(=O)[C@H]2CCCCN2C)C(C)C)OC(C)=O)sc1CCOCc1ccccc1
*A* label 0

*Q* Per the assay record, what outcome was assigned to CC(C)(C)N1CCC1CN (stereo not given) ?
*A* label 0

*Q* Can you look up the reported call for COc1ccc(C(=O)Nc2ncc(Cc3cccc(Cl)c3)s2)cc1OC for me?
*A* label 0

*Q* Which outcome was assigned to COC1C(CO)OC(n2c3ccccc3c3c4c(c5c6ccccc6[nH]c5c32)C(=O)NC4=O)C(O)C1O (stereo not given) in this test?
*A* label 1

*Q* Answer briefly: the call reported for COC1=CC(c2ccc[nH]2)=N/C1=C\c1[nH]c(C)c(CC(=O)OCc2ccccc2)c1CCC(=O)OCc1ccccc1 in this assay.
*A* label 0

*Q* Recorded call for Cc1ccc(Cl)cc1Nc1nc(C(F)(F)F)ccc1C(=O)N/N=C/c1cccnc1 ?
*A* label 0
